test system: HOP-92 NSCLC; test: NCI tumour cell line growth inhibition, 48 h
Documented TGI across a set of compounds

# compound, TGI
data = [
    ("COc1ccc(-c2[nH]c3ccc(OC)cc3c2C=C(C#N)C#N)cc1", "> 100 µM"),
    ("O=C1c2cc(O)c(O)cc2O[C@H](c2ccc(O)c(O)c2)[C@H]1O", "> 100 µM"),
    ("CCCCCCCCCCCCCCCCCCNc1ccn(C2OC(COP(=O)(O)OCC3OC(n4ccc(N)nc4=O)C(O)C3O)C(O)C2O)c(=O)n1 (stereo not drawn)", "> 100 µM"),
    ("C=CCNC(=O)C(C)C1CCC2(C)C=CC(=O)C(C)=C2C1O (stereo not drawn)", "> 100 µM"),
    ("COc1ccc(/C=C2\\C(=O)N(NC(C)=O)c3ccccc32)cc1", "> 100 µM"),
    ("Cc1cc(Br)c(NC(=O)c2c(-c3c(Cl)cccc3Cl)noc2C)c(Br)c1", "> 100 µM"),
    ("Cc1ccc(S(=O)(=O)NCCCCC(N)C(=O)O)cc1 (stereo not drawn)", "> 100 µM"),
    ("O=C(Nn1c(-c2ccccc2)nc2ccccc2c1=O)c1ccc(Cl)cc1", "> 100 µM"),
    ("CCOC(=O)C1(C)CCC(C(C(=O)O)C(=O)O)CC1=O (stereo not drawn)", "> 100 µM"),
    ("C1CSCCSCCCS[C@@H]2CCCCC2SC1 (stereo partly drawn)", "> 100 µM"),
    ("COc1ccc2ccccc2c1C1=NC(C)(C)CO1", "> 100 µM"),
    ("O=C(CCc1cc(O)cc(O)c1)NCCc1cc(O)cc(OCc2ccccc2)c1", "> 100 µM"),
    ("COc1cc(/C=C2\\NC(=O)C(Cc3cc(OC)c(OC)c(C)c3OC)N(C(C)=O)C2=O)c(OC)c(C)c1OC (stereo not drawn)", "> 100 µM"),
    ("O=C(c1ccccc1)C1(Br)S(=O)(=O)OCCOS1(=O)=O", "> 100 µM"),
    ("CC(=O)Oc1c(C(=O)[O-])cc(C(C)C)cc1C(C)C.CC(=O)Oc1c(C(=O)[O-])cc(C(C)C)cc1C(C)C.CC(=O)Oc1c(C(=O)[O-])cc(C(C)C)cc1C(C)C.CC(=O)Oc1c(C(=O)[O-])cc(C(C)C)cc1C(C)C.[Cu+2].[Cu+2]", "> 100 µM"),
    ("Cc1nc2sc3cccc(Cl)c3n2c(=O)c1N=Nc1ccc(Cl)cc1", "> 100 µM"),
    ("O=NN(CCCl)C(=O)NC1CCC(CC(=O)O)CC1 (stereo not drawn)", "> 100 µM"),
    ("Cc1nc2c(sc3nc4c(cc32)CCC4)c(=O)o1", "> 96.4 µM"),
]
